B1: CPEB3 Ribozyme (parent)
chain: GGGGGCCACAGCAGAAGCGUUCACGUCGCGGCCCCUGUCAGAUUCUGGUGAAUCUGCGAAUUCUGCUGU

# Variants of: B1
# testDetails: self-cleavage, relative activity (ratio to wild type); higher = more cleavage; co-transcriptional
assayMetric: self-cleavage

INSERT INTO measurements (mutationlabel, assaymetric, readoutnumber) VALUES
  ('G48A', 'self-cleavage', 1),
  ('A40U U67G', 'self-cleavage', 0.886),
  ('G2A C24G', 'self-cleavage', 0.0162),
  ('G17C G37C', 'self-cleavage', 0.0977),
  ('G2U G31U', 'self-cleavage', 0.0654),
  ('U53C G68U', 'self-cleavage', 0.986),
  ('U44A G65C', 'self-cleavage', 0.422),
  ('G17U C18A', 'self-cleavage', 0.137),
  ('G19A U49C', 'self-cleavage', 0.163),
  ('G1C C45G', 'self-cleavage', 0.182),
  ('G11C G31A', 'self-cleavage', 0.693),
  ('A51C U53C', 'self-cleavage', 0.781),
  ('A8G C12A', 'self-cleavage', 0.175),
  ('G19U U46G', 'self-cleavage', 0.596),
  ('G1U G28C', 'self-cleavage', 0.0671),
  ('G1A U64G', 'self-cleavage', 0.0694),
  ('C6G G48C', 'self-cleavage', 0.35),
  ('C22G G30C', 'self-cleavage', 0.166),
  ('C34U G41A', 'self-cleavage', 0.828),
  ('C12G C66G', 'self-cleavage', 0.513),
  ('G19A G48U', 'self-cleavage', 0.227);
